Test system: Porcine epidemic diarrhea virus
test summary: Antiviral activity against Porcine epidemic diarrhea virus infected in African green monkey Vero E6 cells assessed as inhibition of viral replication
Assay type: functional, organism-based
recorded conditions: Vero C1008
property measured: EC50 (µM)

1. COc1ccc(-c2nc(N)n(C)c2SSc2c(-c3ccc(OC)cc3)nc(N)n2C)cc1 : 5.68

---

target desc: Replicase polyprotein 1ab (Severe acute respiratory syndrome coronavirus 2, UniProt P0DTD1)
property measured: IC50 (nM)

1. CC(=O)O[C@H](CC=C(C)C)C1=CC(=O)c2c(O)ccc(O)c2C1=O : 350
2. CC(C)=CC[C@@H](OC(=O)CC(C)(C)O)C1=CC(=O)c2c(O)ccc(O)c2C1=O [BETA-HYDROXYISOVALERYLSHIKONIN] : 1020
3. COc1ccc(-c2nc(N)n(C)c2SSc2c(-c3ccc(OC)cc3)nc(N)n2C)cc1 : 30
